# Test system: Fibroblast
# Experiment: Multiplex assay against human fibroblast
# Type: toxicity, cell-based
# Condition Label: 12 h, 1 µM, compound concentration 1 uM, replicate 1
Entries and their Population Hoechst High Intensity Objects (%) values follow.
Readout Type: Population Hoechst High Intensity Objects (%)

[
  {
    "Compound": "N#Cc1c(Oc2cccc(OS(=O)(=O)CCCC(F)(F)F)c2)cccc1C(F)(F)F",
    "Meas Value": 2
  },
  {
    "Compound": "N#Cc1cc(F)cc(-c2nc(-c3ccc(F)cn3)no2)c1",
    "Meas Value": 0
  },
  {
    "Compound": "O=C(CCCc1ccccc1)Nc1nc2ccccc2c(=O)s1",
    "Meas Value": 2
  },
  {
    "Compound": "CCCOc1ccc2[nH]cc(C3=CCNCC3)c2n1.Cl",
    "Meas Value": 2
  },
  {
    "Compound": "Br.CS(=O)(=O)Nc1c(O)ccc2c1CCCC2C1=NCCN1 (stereo unspecified)",
    "Meas Value": 1
  },
  {
    "Compound": "Cc1noc(-c2ccc(-c3ccc(CC(=O)O)cc3)cc2)c1NC(=O)O[C@H](C)c1ccccc1Cl",
    "Meas Value": 0
  },
  {
    "Compound": "CC(C)COc1ccc(CNC(=O)N(Cc2ccc(F)cc2)C2CCN(C)CC2)cc1 [PIMAVANSERIN]",
    "Meas Value": 0
  },
  {
    "Compound": "Cc1sc2c(c1C)C(c1ccc(Cl)cc1)=N[C@@H](CC(=O)NCCCCCCCCNC(=O)COc1cccc3c1C(=O)N(C1CCC(=O)NC1=O)C3=O)c1nnc(C)n1-2 (stereo partly specified)",
    "Meas Value": 3
  },
  {
    "Compound": "Cc1cccc(NC(=O)CN2CCC(c3ccccn3)CC2)c1.Cl.Cl",
    "Meas Value": 4
  },
  {
    "Compound": "CC(=O)Nc1cccc2c1c(Sc1ccc(Cl)cc1)c(C)n2CC(=O)O [AZD1981]",
    "Meas Value": 1
  },
  {
    "Compound": "NCCc1cn(S(=O)(=O)c2c(Cl)nc3sccn23)c2ccccc12.O=C(O)C(=O)O",
    "Meas Value": 4
  },
  {
    "Compound": "O=C(NCCN1CCC(n2c(=O)[nH]c3cc(Cl)ccc32)CC1)c1ccc(F)cc1 [HALOPEMIDE]",
    "Meas Value": 0
  },
  {
    "Compound": "CC[C@@H](C)Nc1nc(C)nc2c(-c3ccc(OC)nc3C)c(C)nn12 [PEXACERFONT]",
    "Meas Value": 1
  },
  {
    "Compound": "CCc1cc2cc(NS(=O)(=O)c3ccc(C#N)cc3)ccc2n(CC)c1=O",
    "Meas Value": 1
  },
  {
    "Compound": "CCCCC1=NC2(CCCC2)C(=O)N1Cc1ccc(-c2ccccc2-c2nnn[nH]2)cc1 [IRBESARTAN]",
    "Meas Value": 1
  },
  {
    "Compound": "COc1ccccc1N1CCN(C[C@@H](C(=O)NC(C)(C)C)c2ccccc2)CC1.Cl.Cl",
    "Meas Value": 2
  }
]

---

# Test system: U2OS
# Experiment: Multiplex assay against U2OS
# Assay type: toxicity, cell-based
# Condition Label: human, 12 h, 10 µM, compound concentration 10 uM, replicate 1
Entries and their Population Tubulin-Different-Phenotype (%) values follow.
Readout Type: Population Tubulin-Different-Phenotype (%)

[
  {
    "Compound": "Cc1sc2c(c1C)C(c1ccc(Cl)cc1)=N[C@@H](CC(=O)NCCCCCCCCNC(=O)COc1cccc3c1C(=O)N(C1CCC(=O)NC1=O)C3=O)c1nnc(C)n1-2 (some centres undefined)",
    "Meas Value": "0%"
  },
  {
    "Compound": "Cc1cccc(NC(=O)CN2CCC(c3ccccn3)CC2)c1.Cl.Cl",
    "Meas Value": "3%"
  },
  {
    "Compound": "CC[C@@H](C)Nc1nc(C)nc2c(-c3ccc(OC)nc3C)c(C)nn12",
    "Meas Value": "1%"
  },
  {
    "Compound": "CN(C)C(=O)Cn1cc(-c2ccc(-c3cncc4ccccc34)cc2)cn1",
    "Meas Value": "14%"
  },
  {
    "Compound": "CC(C)c1noc(N2CCC(COc3ccc(-c4ccc(S(C)(=O)=O)cc4)nc3)CC2)n1",
    "Meas Value": "6%"
  },
  {
    "Compound": "CN1CCN(c2cc(-c3ccccc3)nc(N)n2)CC1",
    "Meas Value": "3%"
  },
  {
    "Compound": "CCc1cc2cc(NS(=O)(=O)c3ccc(C#N)cc3)ccc2n(CC)c1=O",
    "Meas Value": "4%"
  },
  {
    "Compound": "O=C(CCCc1ccccc1)Nc1nc2ccccc2c(=O)s1",
    "Meas Value": "1%"
  },
  {
    "Compound": "Br.CS(=O)(=O)Nc1c(O)ccc2c1CCCC2C1=NCCN1 (centres undefined)",
    "Meas Value": "1%"
  }
]
